Assay: Stability of the nine components in rat plasma QC samples (auto-sampler, freeze-thaw, long-term)
Assay type: physicochemical
Settings: rat plasma, MQC spiked 500 ng/mL (1000 ng/mL for II), n = 5
value_type: Long-Term Stability (−80 °C, 14 Days), RE (%)

O=C(O)/C=C/c1ccc(O)c(O)c1 [Compound V, caffeic acid] = −5.99

P: O=C(O)[C@H]1O[C@@H](Oc2cc(O)c3c(=O)cc(-c4ccc(O)cc4)oc3c2)[C@H](O)[C@@H](O)[C@@H]1O [IX, apigenin-7-O-β-D-glucuronide]
Q: O=c1cc(-c2ccc(O)c(O)c2)oc2cc(O[C@@H]3O[C@H](CO[C@@H]4O[C@H](CO)[C@@H](O)[C@H](O)[C@H]4O)[C@@H](O)[C@H](O)[C@H]3O)cc(O)c12 [Compound VI, luteolin-7-O-β-D-gentiobioside]
Task item: For the pair P and Q , which entry has the numerically smaller recorded Long-Term Stability (−80 °C, 14 Days), RE? Your answer should be the label attached to the chosen record.
Reply: P
(P: −0.28%, Q: 2.31%)
